System: ACHN renal
Test: NCI tumour cell line growth inhibition, 48 h; in the data active means GI50 below about 0.43 µM; inactive means the rest
Possible outcomes: active, inactive

# compound, classification
records = [
    ("Cc1nn(CCO)c(C)c1N=[N+]([O-])c1c(C)nn(CCO)c1C", "inactive"),
    ("COc1ccc(N2CCN(C(=O)c3ccc(C(F)(F)F)nc3Nc3cc(Cl)ccc3C)CC2)cc1", "inactive"),
    ("Cc1cc(Oc2ccccc2)ccc1Nc1ncnc2ccc(-c3cnc(Cl)c(NS(C)(=O)=O)c3)cc12", "inactive"),
    ("CCC(=O)OC1CCC2C3CCC(=O)OC3C(C)(CCC(=O)O)CC12C (stereo not drawn)", "inactive"),
    ("CCCN(CCC)c1ccc(CO)c(Cl)c1", "inactive"),
    ("O=[N+]([O-])c1ccc2c(c1)C(=NO)c1cc([N+](=O)[O-])ccc1-2", "inactive"),
    ("COc1cc2c(cc1OCc1ccccc1)N=CC1C[C@@H](O)CN1C2=O (stereo partly drawn)", "inactive"),
    ("[Cl-].[Nd+3].[O-]/N=C(\\c1ccccc1)c1ccccn1.[O-]/N=C(\\c1ccccc1)c1ccccn1.[O-]/N=C(\\c1ccccc1)c1ccccn1", "inactive"),
    ("Cc1nc2c(o1)C(=O)c1ccccc1C2=Nc1ccccc1", "inactive"),
    ("OCc1ccc(N(Cc2ccc(F)cc2)CC2CC2)cc1Cl", "inactive"),
    ("C=C1C(=O)O[C@H]2[C@H]1CC/C(COC(=O)/C=C\\C(=O)NCc1ccc(Cn3c(=O)sn(CCCI)c3=O)cc1)=C\\CC[C@@]1(C)O[C@@H]21", "active"),
    ("COc1cc(-c2csc(NC(=O)Nc3ccc(Cl)c(C(F)(F)F)c3)n2)cc(OC)c1OC", "inactive"),
    ("COC(=O)C1=CN(CC2=CC(=O)C(C)=CC2=O)C=C(C(=O)OC)C1c1cc(OC)ccc1OC", "inactive"),
]

* * *

Each entry below carries its reported TGI.
Test system: HT29 colon
Assay: NCI tumour cell line growth inhibition, 48 h

# molecule, inequality symbol, TGI / µM
measured = [
    ("COc1cc2c(oc(=O)c3cc(C)cc(OC)c32)c2c(C3OC(C)C(O)C(C)(O)C3O)ccc(O)c12 (stereo not given)", "=", 4.81),
    ("COc1cccc2c(Nc3ccc(S(=O)(=O)N=C(N)N)cc3)c3ccc([N+](=O)[O-])cc3nc12", ">", 100),
    ("COc1ccc(N2CCN(C(=O)c3ccc(C(F)(F)F)nc3Nc3cc(Cl)ccc3C)CC2)cc1", "=", 18),
    ("CCOC(=O)/C=C1/SC(N2CCCCC2)C(=O)N1CC (stereo not given)", ">", 100),
    ("COc1ccc(OC)c2c1C(=O)C(=O)C(Cl)=C2O", ">", 100),
]

* * *

Each entry below carries its reported TGI.
System: MDA-MB-435
Assay: NCI tumour cell line growth inhibition, 48 h
experimental endpoint: TGI

# smiles repr, test result
records = [
    ("COc1ccc2c(c1)[n+]([O-])c(C#N)c(NC(=O)c1cccs1)[n+]2[O-]", "> 100 µM"),
    ("CN(C)CCNc1ccc(NCC[N+](C)(C)Cc2ccc([N+](=O)[O-])cc2)c2c1C(=O)c1ccccc1C2=O", "> 25 µM"),
    ("COC(=O)CCc1ccc2c(c1)[C@H](C(=O)OC)[C@@H](c1ccc(O)cc1)O2", "> 100 µM"),
    ("CSc1ncnc2c1cnn2Cc1cn(CCCCO)nn1", "> 100 µM"),
    ("C/C(=N/OC(=O)c1cccc2c(=O)c3ccccc3[nH]c12)[C@H]1CC[C@H]2[C@@H]3CCC4=C/C(=N/OC(=O)c5cccc6c(=O)c7ccccc7[nH]c56)CC[C@]4(C)[C@H]3CC[C@]12C", "33.3 µM"),
    ("CC(C)C[C@H](NC(=O)Cn1ccc(Nc2ccccc2)cc1=O)B(O)O", "2.29 µM"),
    ("O=CC1=C(C(=O)OC(c2ccccc2)c2ccccc2)N2C(=O)[C@@H](NC(=O)Cc3cccs3)[C@H]2SC1", "> 100 µM"),
    ("O=c1c2ccc(Cl)cc2oc2c(CNc3ccc(S(=O)(=O)Nc4nccs4)cc3)cccc12", "> 100 µM"),
]
